// values below are reported normalized growth
# METHOD_NOTES: chemical genetic growth profiling, strain panel (AID 1159580);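 further: tested at 20 µM; growth read once vehicle control cultures reached saturation at 30 °C; 1 = growth at the plate median or of vehicle wells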
# TEST_CONDITIONS: S. cerevisiae deletion strains, growth OD, locus YOR069W, strain VPS5, stronger effect = lower value
Out of some 5,500 compounds screened, about 2,000 (36%) were called active. Another 18% or so got no clear call; they are omitted. Some of the results follow.

MOLECULE: COc1ccc(C2CC(=O)c3ccc(OC)cc3O2)cc1 (configuration not stated)
normalized growth: 0.979

MOLECULE: CCCCOc1ccc(CC(=O)NO)cc1
normalized growth: 0.997

MOLECULE: CC(=O)[C@H]1CCC2C3C[C@H](C)C4=CC(=O)CC[C@]4(C)C3[C@@H](O)C[C@@]21C (some centres not stated)
normalized growth: 0.991

MOLECULE: Cc1ccc(C(=O)C(C)CN2CCCCC2)cc1 (configuration not stated)
normalized growth: 1

MOLECULE: COc1ccc2c(c1)OC[C@@H](Cc1ccc(OC)c(OC)c1)[C@H]2O
normalized growth: 0.995

MOLECULE: CN=C(NC#N)NCCSCc1nc[nH]c1C
normalized growth: 0.99

MOLECULE: O=[N+]([O-])O[C@H]1CO[C@H]2[C@@H]1OC[C@H]2O[N+](=O)[O-]
normalized growth: 1.01

MOLECULE: CNc1ccccc1C(=O)N1CCc2c([nH]c3ccccc23)C1=O
normalized growth: 1.01

MOLECULE: Cc1c(N(C)C)c(=O)n(-c2ccccc2)n1C
normalized growth: 1

MOLECULE: C1CCc2nnnn2CC1
normalized growth: 1.02

MOLECULE: COc1cc(OC)c2c(c1)OC(c1ccc(OC)c(OC)c1)C(O)C2 (configuration not stated)
normalized growth: 1.02

MOLECULE: C[C@@H]1O[C@@H](O[C@H]2[C@@H](Oc3cc(O)c4c(c3)O[C@H](c3ccc(O)cc3)CC4=O)O[C@H](CO)[C@@H](O)[C@@H]2O)[C@H](O)[C@H](O)[C@H]1O
normalized growth: 0.99

MOLECULE: O=C(/C=C/C=C/c1ccc2c(c1)OCO2)N1CCCCC1
normalized growth: 0.98

MOLECULE: CCc1ccc(CCOc2ccc(CC3SC(=O)NC3=O)cc2)nc1 (configuration not stated)
normalized growth: 1

MOLECULE: COC1C(O)C(O)C(O)[C@@H](O)C1O (some centres not stated)
normalized growth: 1.01

MOLECULE: O=C(O)c1ccccc1OP(=O)(O)O
normalized growth: 1.01

MOLECULE: O=C(O)C1CC([C@@H]2CCCCN2)CN2CCCCC12 (some centres not stated)
normalized growth: 1

MOLECULE: CCC1(c2ccccc2)C(=O)NCNC1=O
normalized growth: 1.01

MOLECULE: COc1ccc(-c2c(O)c3cc4c(c(CC=C(C)C)c3oc2=O)OC(C)(C)CC4)cc1
normalized growth: 1.01

MOLECULE: N=c1nc(N2CCCCC2)cc(N)n1O
normalized growth: 0.987

MOLECULE: NC(=O)c1ncn([C@@H]2O[C@H](CO)[C@@H](O)[C@H]2O)c1O
normalized growth: 1.01

MOLECULE: C=CC(C)(C)c1c2c(c(O)c3c(=O)c4ccc(O)c(O)c4oc13)C=CC(C)(C)O2
normalized growth: 0.873

MOLECULE: C[CH2][Hg][S]c1ccccc1C(=O)O
normalized growth: 0.0457

MOLECULE: O=C1C[C@@H](c2ccc(O)cc2)Oc2cc(O)cc(O)c21
normalized growth: 1.01

MOLECULE: CCC(C(=O)O)c1ccccc1 (configuration not stated)
normalized growth: 1

MOLECULE: O=C(O)c1cc(=O)c2cc(Cl)ccc2[nH]1
normalized growth: 1.01

MOLECULE: COc1c(CC=C(C)C)c2c(c3oc(=O)c(-c4ccc(O)cc4)c(O)c13)C=CC(C)(C)O2
normalized growth: 0.997

MOLECULE: CC(C(=O)O)c1ccc2c(c1)[nH]c1ccc(Cl)cc12 (configuration not stated)
normalized growth: 1.01

MOLECULE: COc1c2c(c(CC=C(C)C)c3oc(=O)c(-c4ccc(O)cc4)c(O)c13)OC(C)(C)C=C2
normalized growth: 0.896

MOLECULE: COc1cc(OC)c2c(c1)O[C@H](c1ccc(OC)c(OC)c1)[C@@H](O)C2
normalized growth: 1.01

MOLECULE: CCCCCCCCCCCCC[N+](C)(C)Cc1ccccc1
normalized growth: 0.0467

MOLECULE: O=C(O)C1C(O)CCC2CN3CCc4c([nH]c5ccccc45)C3CC21 (configuration not stated)
normalized growth: 1.01

MOLECULE: O=C1C[C@@H](c2ccccc2)Oc2cc(O)cc(O)c21
normalized growth: 0.943

MOLECULE: CCOC(=O)/C=C(\C)OP(=O)(OC)OC
normalized growth: 0.99

MOLECULE: NC/C=C/C(=O)O
normalized growth: 1.02

MOLECULE: COc1ccc(CC2c3cc(OC)c(OC)cc3CCN2C)cc1OC (configuration not stated)
normalized growth: 0.994

MOLECULE: CCCCOc1ccc(OCCCN2CCOCC2)cc1
normalized growth: 0.995

MOLECULE: O=c1ccc2cc(O)c(O)cc2o1
normalized growth: 1.01

MOLECULE: CCc1nc(N)nc(N)c1-c1ccc(Cl)cc1
normalized growth: 1

MOLECULE: CC1(C)C2CC[C@]3(C)C(C(=O)C=C4[C@@H]5C[C@@](C)(C(=O)O)CC[C@]5(C)CC[C@]43C)[C@@]2(C)CC[C@@H]1O (some centres not stated)
normalized growth: 1.05

MOLECULE: S=C=NCc1ccccc1
normalized growth: 0.048

MOLECULE: OCCN(CCO)c1nc(N2CCCCC2)c2nc(N(CCO)CCO)nc(N3CCCCC3)c2n1
normalized growth: 1.01

---

# METHOD_NOTES: chemical genetic growth profiling, strain panel (AID 1159580);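 further: tested at 20 µM; growth read once vehicle control cultures reached saturation at 30 °C; 1 = growth at the plate median or of vehicle wells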
# TEST_CONDITIONS: S. cerevisiae deletion strains, growth OD, locus YDR137W, strain rgp1, stronger effect = lower value
Hit rate of the full screen: of about 5,500 compounds, about 2,000 (36%) were called active. Inconclusive results (about 18%) are left out. This is one part of the list.
// values below are reported normalized growth

MOLECULE: CC[C@@H](CO)NCCN[C@@H](CC)CO
normalized growth: 1.01

MOLECULE: COc1ccc2c(c1)C1(C)CCC(=O)CC1CC2 (stereo not drawn)
normalized growth: 0.967

MOLECULE: C=CCc1ccc2c(c1)OCO2
normalized growth: 1.05

MOLECULE: N=c1nc(N2CCCCC2)cc(N)n1O
normalized growth: 0.977

MOLECULE: CN=C(NC#N)NCCSCc1nc[nH]c1C
normalized growth: 1.01

MOLECULE: CCSC(=N)N
normalized growth: 1.01

MOLECULE: CCc1nc(N)nc(N)c1-c1ccc(Cl)cc1
normalized growth: 1.02

MOLECULE: c1ccc(CC2=NCCN2)cc1
normalized growth: 1.03

MOLECULE: O=C(O)C1CC([C@@H]2CCCCN2)CN2CCCCC12 (stereo partly drawn)
normalized growth: 0.978

MOLECULE: COc1cccc([C@]2(O)CCCC[C@H]2CN(C)C)c1
normalized growth: 0.942

MOLECULE: OCC(O)Cc1ccc2c(c1)OCO2 (stereo not drawn)
normalized growth: 0.993

MOLECULE: c1ccc(CN(CC2=NCCN2)c2ccccc2)cc1
normalized growth: 0.967

MOLECULE: C=C1CC[C@H](O)C/C1=C/C=C1\CCC[C@]2(C)C([C@H](C)/C=C/[C@H](C)C(C)C)CC[C@@H]12 (stereo partly drawn)
normalized growth: 0.939

---

# METHOD_NOTES: chemical genetic growth profiling, strain panel (AID 1159580);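 further: tested at 20 µM; growth read once vehicle control cultures reached saturation at 30 °C; 1 = growth at the plate median or of vehicle wells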
# TEST_CONDITIONS: S. cerevisiae deletion strains, growth OD, locus YNL271C, strain bni1, stronger effect = lower value
About 2,000 (36%) of roughly 5,500 compounds were called active. Not shown: some 18% with an inconclusive outcome. The list shows a part of the results.

MOLECULE: CC[C@@H](CO)NCCN[C@@H](CC)CO
normalized growth: 0.995

MOLECULE: O=C1CC(c2ccccc2)Oc2ccccc21 (stereo not given)
normalized growth: 0.947

MOLECULE: COc1cc(O)c(C(=O)c2ccccc2)cc1O
normalized growth: 0.951

MOLECULE: CCCCOc1ccc(C(=O)CCN2CCCCC2)cc1
normalized growth: 0.94

MOLECULE: CC(=O)O[C@]1(C(C)=O)CCC2C3C=C(C)C4=CC(=O)CCC4(C)C3CCC21C (stereo not given in full)
normalized growth: 0.949

---

# METHOD_NOTES: chemical genetic growth profiling, strain panel (AID 1159580);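 further: tested at 20 µM; growth read once vehicle control cultures reached saturation at 30 °C; 1 = growth at the plate median or of vehicle wells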
# TEST_CONDITIONS: S. cerevisiae deletion strains, growth OD, locus YJR043C, strain POL32
The campaign covered roughly 5,500 compounds. About 2,000 (36%) were called active. Another 18% or so got no clear call; they are omitted. No stated cut-off is given here; in the data, active means normalized growth mostly below about 0.91 (no sharp cut-off); inconclusive means no clear call, values can overlap the other calls; inactive means mostly above about 0.92. The list shows a part of the results.
Outcomes: active, inactive

MOLECULE: Cc1cc(=O)n2c(-c3ccc(Cl)cc3)csc2n1
ASSIGNED_CATEGORY: inactive
--
MOLECULE: COc1ccc(S(=O)(=O)Nc2cc(C)c(C)cc2[N+](=O)[O-])c(OC)c1
ASSIGNED_CATEGORY: inactive
--
MOLECULE: Oc1ccc(O)cc1
ASSIGNED_CATEGORY: inactive
--
MOLECULE: O=C(Nc1ccccc1C(=O)Nc1ccc(Br)cc1)c1ccccc1
ASSIGNED_CATEGORY: inactive
--
MOLECULE: Nc1nc2[nH]c(=O)c(=O)[nH]c2c(=O)[nH]1
ASSIGNED_CATEGORY: inactive
--
MOLECULE: CCOC(=O)/C=C(\C)OP(=O)(OC)OC
ASSIGNED_CATEGORY: inactive
--
MOLECULE: C1CCc2nnnn2CC1
ASSIGNED_CATEGORY: inactive
--
MOLECULE: CCCCOc1ccc(CC(=O)NO)cc1
ASSIGNED_CATEGORY: inactive
--
MOLECULE: COc1c(O)cc2oc3cc(O)c(CC=C(C)C)c(O)c3c(=O)c2c1CC=C(C)C
ASSIGNED_CATEGORY: active
--
MOLECULE: CC(=O)O[C@]1(C(C)=O)CCC2C3C[C@H](C)C4=CC(=O)CC[C@]4(C)C3CC[C@@]21C (some centres undefined)
ASSIGNED_CATEGORY: inactive
--
MOLECULE: CCOC(=O)COc1ccc2c(c1)OC(C)(C)CC2=O
ASSIGNED_CATEGORY: inactive
--
MOLECULE: CC1(C)S[C@@H]2[C@H](NC(=O)[C@H](NC(=O)N3CCNC3=O)c3ccccc3)C(=O)N2C1C(=O)O (some centres undefined)
ASSIGNED_CATEGORY: inactive
--
MOLECULE: Oc1c(Cl)c(Cl)c(Cl)c(Cl)c1Cl
ASSIGNED_CATEGORY: active
--
MOLECULE: NC(N)=NOCC[C@H](N)C(=O)O
ASSIGNED_CATEGORY: inactive

The measured values listed here are drawn from PubChem BioAssay AID1159580.
